B1: tRNA (parent)
chain: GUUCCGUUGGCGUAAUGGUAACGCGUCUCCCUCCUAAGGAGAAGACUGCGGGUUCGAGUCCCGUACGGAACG

Variants of: B1
assayComment: yeast fitness relative to wild type (ratio to wild type); higher = fitter; tRNA-Arg(CCU), competitive growth, 37 C, YPD
This sample holds only a part of the variants without activity.
measurementName: yeast fitness

Before answering, review these 10 worked examples.
| var | obsValue |
| --- | --- |
| A20U C22U U47A | ≤ 0.5 |
| A65U G67C | 0.64 |
| U16A G23C C27G C34A G44A | ≤ 0.5 |
| U8C C22A A42U U54C C66G | ≤ 0.5 |
| U8A C11U G25A C33A A40U | ≤ 0.5 |
| U2C C27G G51A | ≤ 0.5 |
| A36C C46U U53A | 0.639 |
| C11G A37U C46U G63U | ≤ 0.5 |
| U13A A57C | 0.604 |
| G9A C29A G56C | ≤ 0.5 |

Name the recorded yeast fitness of the item U3G A14G C60G in your answer. ≤ 0.5

Name the recorded yeast fitness of the item U13C C22U A45U in your answer. 0.713

Name the recorded yeast fitness of the item C22A U53C in your answer. 0.764

Name the recorded yeast fitness of the item C4U C22G G67U in your answer. 0.638

Name the recorded yeast fitness of the item A42G C46G C49U in your answer. 0.744

Name the recorded yeast fitness of the item C4A U32C C46A in your answer. 0.697
